Measured melting point accompanies every entry in the list below.
measuredMetric: melting point

1. CCCCCn1c(=O)c2cc(C(=O)O)cn2c2ccccc21    184 to 186 °C
2. O=C(CCC(=O)N1CCC(c2ccc(Cl)cc2)CC1)c1ccc2c(c1)CCN(C1CCCCC1)CC2    128 to 130 °C
3. Cc1ccc(S(=O)(=O)N2[C@@H](CC(=N)NO)CC[C@H]2c2ccc(F)cc2)cc1 (racemic)    84 °C
4. C=CCN1CC(=O)N(c2cc(Cl)ccc2C)C1=S    106 to 109 °C
5. CC(C)OC(=O)c1cc(Cl)c(Cl)c(Cl)n1    105 to 106 °C
6. CCN1CCC(c2n[nH]c3cc(F)ccc23)CC1    175 to 178 °C
7. CCN(CC)c1cccc2nc(Cc3c(Cl)cc(C(F)(F)F)cc3Cl)n(C)c12    150 to 151 °C
8. Cc1ccc(-c2csc(-c3cccc(C(=O)O)c3)n2)cc1C    235 to 236 °C
9. CC(C)=CCOc1ccc(C(=O)C=Cc2ccncc2)c(O)c1    99 to 100 °C
10. CCOc1ccc(C2=NN(c3ccc(C(=O)N4CCSCC4)cc3)C(=O)[C@H]3CC=CC[C@@H]23)cc1OCC (relative stereo)    104 to 106 °C
11. CC(=O)c1cc(CBr)cc(CBr)c1    87 to 88 °C
12. O=C(NCc1ccc(F)cc1)c1sc2ccccc2c1Br    120 to 125 °C
13. COc1cc(OC)cc(C(=O)NC(=O)Nc2ccc3c(c2)NC(=O)/C3=C\c2[nH]c(C)c(C(=O)O)c2C)c1    > 300 °C
14. O=[N+]([O-])c1ccc(-c2cc3c(Oc4ccc(Cl)cc4)cncc3s2)cc1    193 to 195 °C
15. O=C(CCCN1CCNC1=O)N1CCC(C2c3ncc(Br)cc3CCc3cc(Cl)cc(Br)c32)CC1 (single isomer, unassigned; (+))    120 to 123 °C
16. CS(=O)(=O)N1CCC(C(=O)N(CCCN2CCC(Cc3ccc(F)cc3)CC2)c2ccc(Cl)c(Cl)c2)CC1    148 to 150 °C
17. CC(=O)OC1CCC2(C)C(=CCC3C2CCC2(C)C(OC(C)=O)CCC32)C1 (stereo not given)    163 to 165 °C
18. O=C(O)c1ccc(-c2c([N+](=O)[O-])oc3ccc(-c4ccccc4)cc23)cc1    235 to 249 °C
19. N#Cc1c(N2CCCCC2)cc(-c2cccc3ccccc23)c2c1-c1ccccc1C2    188 to 190 °C
20. CCNC(=NC#N)Nc1ccc(C2=NNC(=O)CC2C)cc1 (stereo not given)    208 to 209 °C
21. CCOC(=O)c1cc2cc(OCSN(C)C)ccc2oc1=O    157 to 160 °C
22. Cc1cc(OCc2cnc(-c3ccc(C(F)(F)F)cc3)cc2C(F)(F)F)ccc1OC(C)(C)C(=O)O    148 to 149 °C
23. Cc1nc(-n2ccc(OCc3ccc(C(F)(F)F)cc3)cc2=O)sc1C(=O)NCc1ccccc1    278 to 280 °C
24. COC(=O)c1cc(Cl)sc1NC(C)=O    110 °C
25. COc1ccc2c(c1OC)CC[C@H]2NC(C)=O    175 °C
26. CC(C)NC(=N)NC(=N)NOCCCOc1ccc(Cl)cc1    98 to 100 °C
27. CS(=O)(=O)Nc1ccc(C#N)cc1Nc1ccc(F)cc1F    167 to 169 °C
28. CCOC(=O)c1c(C(F)(F)F)nc(C(F)F)c(C(=O)OC)c1N1CC1    92 to 95 °C
29. Cc1cccc(C(=O)N2CC2C#N)n1 (stereo not given)    120 to 122 °C
30. COc1cc(C)cc(OC)c1C1=NC(NC(=O)Nc2cccc(C)c2)C(=O)N(C)c2ccccc21 (stereo not given)    260 °C
31. COc1ccc(OC)c(-c2ccc(C)cc2)c1    65 to 66 °C
32. CC1=C2C3C(C)CC4=CC(=O)CCC4C3CCC2(C)C(O)C1 (stereo not given)    164 to 167 °C
33. COc1ccc2c(C(=O)O)cccc2c1SC(F)(F)F    204 to 205 °C
34. CCCN1c2ncccc2C(=O)N(C)c2ccc(-c3cn[nH]c3)nc21    206 to 207 °C
35. O=C(N[C@H](Cc1ccc(C(F)(F)F)cc1)[C@H](O)c1ccc(F)cc1)c1cccc2ccccc12 (racemic)    134 to 135 °C
36. CCCCCCCCCCCCOC(=O)C(N)CCCNC(=N)N (stereo not given)    125 to 130 °C
37. CCOC(=O)C(=CC=C(SC)C(=O)c1ccc(O)c(O)c1)N(C)C    144 °C
38. CC(=O)C1=C(C)CC2C3CCC4CC(O)CCC4(C)C3C(=O)CC12C (stereo not given)    230 to 231 °C
39. Nc1nc2c(sc(=O)n2CCCCC(=O)O)c(=O)[nH]1    263 to 265 °C
40. Cc1cccnc1-c1ccc2ccnc(N)c2n1    170 to 171 °C

Sourced from a melting point compilation (Tetko et al.; mined from patent text by program, amines drawn as free bases though some values may be those of a salt)
